FYI, the data here is from ChEMBL document CHEMBL1153971.

Answer each item with its documented Growth_index.
test system: Mycobacterium tuberculosis; experiment: Antimycobacterial activity against Mycobacterium tuberculosis H37Rv ATCC 27294 assessed as growth index at 6.25 ug/mL after 7 days by radiometric method; type: functional
Give bare numbers.

Below, 2 molecules whose answers are already recorded.
COc1nc2ccc(Br)cc2cc1C(c1ccccc1)n1cccn1 (racemic) | 0
COc1nc2ccc(Br)cc2cc1C(c1ccccc1)N1CCN(c2cccc(C(F)(F)F)c2)CC1 (centres undefined) | 0

Give Growth_index for each listed item.
1. COc1nc2ccc(Br)cc2cc1C(Nc1ccc2oc(=O)ccc2c1)c1ccccc1 (racemic)
2. COc1nc2ccc(Br)cc2cc1C(c1ccccc1)n1ccnc1 (racemic)

Solution:
[53, 35]

----------
Please provide measured inhibition of growth at 6.25 µg/mL for the entries that follow.
test system: Mycobacterium tuberculosis; assay: Antimycobacterial activity against Mycobacterium tuberculosis H37Rv ATCC 27294 assessed as growth inhibition at 6.25 ug/mL after 7 to 9 days by radiometric method; format: functional; conditions: read-out: GI
One number for each entry, in %.

Solved entries (count: 4):
NNC(=O)c1ccncc1 | 99.3
COc1nc2ccc(Br)cc2cc1C(c1ccccc1)N1CCN(c2cccc(C(F)(F)F)c2)CC1 (stereo not given) | 100
COc1nc2ccc(Br)cc2cc1C(c1ccccc1)n1cccn1 (racemic) | 99.5
COc1nc2ccc(Br)cc2cc1C(Nc1ccc2oc(=O)ccc2c1)c1ccccc1 (racemic) | 92.5

Problem: Fill in the blank: the reported inhibition of growth at 6.25 µg/mL of COc1nc2ccc(Br)cc2cc1C(c1ccccc1)n1ccnc1 (racemic) is ____.
Solution: 94.2

----------
assay: Cytotoxicity against human THP1 cells assessed as cell viability at 1 ug/100 mL after 24 hrs by MTT assay; format: cell-based; conditions: THP-1 cells, read-out: Activity
What viability at 24 h, 1 ug/100 mL was measured for each of the following?
Answers are plain numbers, in %.

COc1nc2ccc(Br)cc2cc1C(c1ccccc1)N1CCN(c2cccc(C(F)(F)F)c2)CC1 (centres undefined) | 87
COc1nc2ccc(Br)cc2cc1C(c1ccccc1)n1cccn1 (racemic) | 71
COc1nc2ccc(Br)cc2cc1C(Nc1ccc2oc(=O)ccc2c1)c1ccccc1 (racemic) | 100

// moving on: another record for viability at 24 h, 1 ug/100 mL
Problem: viability at 24 h, 1 ug/100 mL lookup needed for COc1nc2ccc(Br)cc2cc1C(c1ccccc1)n1ccnc1 (racemic) , thanks.
Solution: 74

----------
test system: Mycobacterium tuberculosis; experiment: Antimycobacterial activity against Mycobacterium tuberculosis H37Rv ATCC 27294 assessed as growth index at 6.25 ug/mL after 4 days by radiometric method; format: functional
reportedProperty: Growth_index
Give bare numbers.

// known answers, use as guide
COc1nc2ccc(Br)cc2cc1C(c1ccccc1)N1CCN(c2cccc(C(F)(F)F)c2)CC1 (centres undefined) | 0
COc1nc2ccc(Br)cc2cc1C(c1ccccc1)n1ccnc1 (racemic) | 28
COc1nc2ccc(Br)cc2cc1C(Nc1ccc2oc(=O)ccc2c1)c1ccccc1 (racemic) | 45

Here is the next item to consider.
Problem: Return reported Growth_index; argument: COc1nc2ccc(Br)cc2cc1C(c1ccccc1)n1cccn1 (racemic)
Solution: 0

----------
assay: Cytotoxicity against human THP1 cells assessed as cell viability at 10 ug/100 mL after 24 hrs by MTT assay; format: cell-based; conditions: THP-1 cells, read-out: Activity
reportedProperty: viability at 24 h, 10 ug/100 mL (%)
Give bare numbers, in %.

The cases that follow already have their viability at 24 h, 10 ug/100 mL on record.
COc1nc2ccc(Br)cc2cc1C(c1ccccc1)n1cccn1 (racemic) | 75
COc1nc2ccc(Br)cc2cc1C(c1ccccc1)N1CCN(c2cccc(C(F)(F)F)c2)CC1 (centres undefined) | 97
COc1nc2ccc(Br)cc2cc1C(c1ccccc1)n1ccnc1 (racemic) | 56

Moving on to the next compound.
Problem: # query: viability at 24 h, 10 ug/100 mL of entry COc1nc2ccc(Br)cc2cc1C(Nc1ccc2oc(=O)ccc2c1)c1ccccc1 (racemic)
Solution: 100

----------
system: Mycobacterium tuberculosis; experiment: Antimycobacterial activity against Mycobacterium tuberculosis H37Rv ATCC 27294 assessed as growth index at 6.25 ug/mL after 1 day by radiometric method; assay type: functional
Consider the following molecules; for each one, report its Growth_index.

COc1nc2ccc(Br)cc2cc1C(c1ccccc1)n1ccnc1 (racemic) | 12
COc1nc2ccc(Br)cc2cc1C(Nc1ccc2oc(=O)ccc2c1)c1ccccc1 (racemic) | 15
COc1nc2ccc(Br)cc2cc1C(c1ccccc1)N1CCN(c2cccc(C(F)(F)F)c2)CC1 (centres undefined) | 1

Pending molecule:
Problem: Need Growth_index of COc1nc2ccc(Br)cc2cc1C(c1ccccc1)n1cccn1 (racemic) , thanks.
Solution: 1
